FYI, the data here is from patent US6825191B2.

// values below are reported IC50
Biological target: human thrombin (Homo sapiens, UniProt P00734)
Construct: solution of human thrombin (a product of SIGMA Co.); purchased SIGMA Co
Assay: Determination of thrombin-inhibiting activity (chromogenic substrate S-2238, initial rate)
Type: biochemical
Conditions: negative logarithm of concentration inhibiting 50% of initial rate; tris hydrochloride buffer pH 8.4, room temperature; read-out: Thrombin-inhibiting activity (pIC50) (converted)

| Molecule | Target or system | IC50 |
| --- | --- | --- |
| CC(C)N1CCC(CN2C(=O)CN(C(=O)c3ccc(Cl)cc3)Cc3ccccc32)CC1.O=C(O)C(F)(F)F [Compd. of Ex. 142, trifluoroacetate] | human thrombin (Homo sapiens, UniProt P00734) | 39.8 µM |
| O=C(O)C(F)(F)F.O=C(c1ccc(CN2C(=O)CN(C(=O)c3ccc(Cl)cc3)Cc3ccc(CCCN4CCCCC4)cc32)cc1)N1CC=CC1 [Compd. of Ex. 93, trifluoroacetate] | human thrombin (Homo sapiens, UniProt P00734) | 63.1 µM |
| O=C(O)C(F)(F)F.O=C(c1ccc(CN2C(=O)CN(C(=O)c3ccc(Cl)cc3)Cc3ccccc32)nc1)N1CC=CC1 [Compd. of Ex. 181, trifluoroacetate] | human thrombin (Homo sapiens, UniProt P00734) | > 100 µM |
| O=C(c1ccc(CN2C(=O)CN(C(=O)c3ccc(Cl)cc3)Cc3ccc(CCP(=O)(O)O)cc32)cc1)N1CCCC1 [Compd. of Ex. 71-1] | human thrombin (Homo sapiens, UniProt P00734) | 31.6 µM |
| O=C(O)C(F)(F)F.O=C(c1ccc(Br)s1)N1CC(=O)N(CC2CCN(c3ccncc3)CC2)c2ccccc2C1 [Compd. of Ex. 25, trifluoroacetate] | human thrombin (Homo sapiens, UniProt P00734) | > 100 µM |
| CC(C)N1CCC(CCN2C(=O)CN(C(=O)c3ccc(Cl)cc3)Cc3ccccc32)CC1.O=C(O)C(F)(F)F [Compd. of Ex. 169, trifluoroacetate] | human thrombin (Homo sapiens, UniProt P00734) | > 100 µM |
| CCOC(=O)c1ccc2c(c1)N(Cc1ccc(C3=[N+](C)CCN3C)cc1)C(=O)CN(C(=O)c1ccc(Cl)cc1)C2.O=C([O-])C(F)(F)F [Compd. of Ex. 206, trifluoroacetate] | human thrombin (Homo sapiens, UniProt P00734) | > 100 µM |
| CN1CCN=C1c1ccc(CN2C(=O)CN(C(=O)c3ccc(Cl)cc3)Cc3ccccc32)cc1.O=C(O)C(F)(F)F [Compd. of Ex. 125, trifluoroacetate] | human thrombin (Homo sapiens, UniProt P00734) | > 100 µM |
| N=C(c1ccc(CN2C(=O)CN(C(=O)c3ccc(Cl)cc3)Cc3ccccc32)cc1)N1CC=CC1.O=C(O)C(F)(F)F [Compd. of Ex. 107, trifluoroacetate] | human thrombin (Homo sapiens, UniProt P00734) | > 100 µM |

###

Biological target: activated human blood coagulation factor X (Homo sapiens, UniProt P00742)
Construct: purchased Enzyme Research Co
Sequence (P00742 235-488 limits assumed): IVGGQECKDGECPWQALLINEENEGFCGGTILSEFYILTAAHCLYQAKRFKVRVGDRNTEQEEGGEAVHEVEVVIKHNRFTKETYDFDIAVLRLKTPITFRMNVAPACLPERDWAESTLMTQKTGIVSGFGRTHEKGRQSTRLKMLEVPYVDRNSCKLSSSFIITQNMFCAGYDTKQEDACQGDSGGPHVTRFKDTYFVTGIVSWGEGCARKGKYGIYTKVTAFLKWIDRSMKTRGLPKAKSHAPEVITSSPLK
Sequence (P00742 41-179 partner limits assumed): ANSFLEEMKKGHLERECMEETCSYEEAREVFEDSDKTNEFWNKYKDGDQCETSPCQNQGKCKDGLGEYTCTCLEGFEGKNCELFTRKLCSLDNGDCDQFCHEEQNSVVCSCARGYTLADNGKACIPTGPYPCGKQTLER
Assay: Determination of activity of inhibiting the activated blood-coagulation factor X (chromogenic substrate, initial rate)
Format: biochemical
Details: negative logarithm of concentration inhibiting 50% of initial rate; tris hydrochloride buffer pH 8.4, room temperature; read-out: Activity of inhibiting activated blood coagulation factor X (pIC50) (converted)

| Molecule | IC50, nM |
| --- | --- |
| CCOC(=O)c1ccc2c(c1)N(Cc1ccc(C3=[N+](C)CCN3C)cc1)C(=O)CN(C(=O)c1ccc(Cl)cc1)C2.O=C([O-])C(F)(F)F [Compd. of Ex. 206, trifluoroacetate] | 200 |
| CN1CC[N+](C)=C1c1ccc(CN2C(=O)CN(C(=O)c3ccc(Cl)cc3)Cc3c(Cl)cccc32)cc1.O=C([O-])C(F)(F)F [Compd. of Ex. 207, trifluoroacetate] | 31.6 |
| O=C(c1ccc(CN2C(=O)CN(C(=O)c3ccc(Cl)cc3)Cc3ccccc32)cc1)N1CC=CC1 [Compd. of Ex. 49] | 31.6 |
| CN1CCN=C1c1ccc(CN2C(=O)CN(C(=O)c3ccc(Cl)cc3)Cc3ccc(CCC(=O)N4CCOCC4)cc32)cc1.O=C(O)C(F)(F)F [Compd. of Ex. 144, mono(trifluoroacetate)] | 200 |
